Test system: winter wheat (Vershin variety)
Assay: Winter wheat seed treatment with BHMPA salts: germinating power (length and mass of roots and sprouts)
Assay type: in vivo
Conditions: 1·10^−11% solution
Think of 6 cm as a floor: if Length, root stands on it or above, it is t; beneath it, f.

In [3]: df
Out[3]:
                                   compound  class
0  O=P([O-])(CO)CO.O=P([O-])(CO)CO.[Mg+2] [Mg-salt, Magnesium BHMPA Salt]      t
1  O=P([O-])(CO)CO.O=P([O-])(CO)CO.[Ca+2] [Ca-salt, Calcium BHMPA Salt]      t
2  O.O.O=P([O-])(CO)CO.O=P([O-])(CO)CO.[Co+2] [Co-salt, Cobalt BHMPA Salt]      t
3  O=P([O-])(CO)CO.[Na+] [Na-salt, Sodium BHMPA Salt]      f
4  O=P([O-])(CO)CO.O=P([O-])(CO)CO.[Zn+2] [Zn-salt, Zinc BHMPA Salt]      t
5  O.O.O=P([O-])(CO)CO.O=P([O-])(CO)CO.[Mn+2] [Mn-salt, Manganese BHMPA Salt]      f

FYI, the data here is from patent US10781224B2.
